Kindly state Inhibition for each of the entries shown.
# Test system: HepG2
# ASSAY_EXPLANATION: GSK_TCMDC: Percent inhibition of human HepG2 cell line. Test compounds present at 10uM.
# Assay type: functional
The reply should contain only the number, in %.

Value of measured Inhibition for the entry CCN(CC)CCCN(C(=O)Nc1c(Cl)cncc1Cl)c1nc(-c2ccc(F)cc2)cs1 : 37

Value of measured Inhibition for the entry O=C1SC(=Cc2ccc(O)c(O)c2)C(=O)N1c1ccccc1 : 12

Value of measured Inhibition for the entry Cl.c1ccc(Oc2ccc(Nc3ccnc4cc(-c5ccc(CN6CCNCC6)o5)ccc34)cc2)nc1 : 7

Value of measured Inhibition for the entry Cc1cccc(-n2c(Nc3ccc(C)c(Cl)c3)nc3ccc(S(=O)(=O)NC(C)C(C)C)cc32)c1 (configuration not stated) : 0

Value of measured Inhibition for the entry CCN(CC)CC(O)Cc1c2ccc([N+](=O)[O-])cc2nc2cc(OC)c(OC)cc12 (configuration not stated) : 41

Value of measured Inhibition for the entry NC(=O)c1cccc(C(=O)Nc2cccc(-c3cccc(-c4nc5cc(C(F)(F)F)ccc5[nH]4)c3)c2)c1 : 71

Value of measured Inhibition for the entry Fc1ccc2nc(Nc3nc(-c4ccccn4)cs3)sc2c1 : 42

Value of measured Inhibition for the entry O=C(CCN1CCCCC1)Nc1ccc(Nc2nccc(NCC(O)c3ccccc3)n2)cc1 (configuration not stated) : 18

Value of measured Inhibition for the entry COc1ccc2nccc(NC(=O)N3CCC(NCCOc4cc(F)cc(F)c4)CC3)c2n1.O=C(O)C(=O)O : 14

Value of measured Inhibition for the entry CN1CCN(c2cc(NC(=O)c3ccc(-c4ccc(Cl)cc4)cc3)ccc2Cl)CC1 : 30

Value of measured Inhibition for the entry CC(C)N1CCC(Oc2ccc(CN3CCN(C(c4ccccc4)c4ccc(Cl)cc4)CC3)cc2)CC1.Cl (configuration not stated) : 44

Value of measured Inhibition for the entry Cc1c(C)n(C2CCCCC2)c2ncnc(OC3CCN(CC(=O)N4CCCC4)CC3)c12 : 31

Value of measured Inhibition for the entry CCCCCCCCCc1c(C)[nH]c2ccccc2c1=O : 0

Value of measured Inhibition for the entry Cc1cccc2nc(-c3cccc(-c4ccc(NC(=O)CC5NC(=O)c6ccccc65)cc4)c3)[nH]c12 (configuration not stated) : 30

Value of measured Inhibition for the entry CN1CCN(CCCN(Cc2cccc(-c3ccc(CNCc4ccc5c(c4)OCO5)cc3)c2)C(=O)Nc2ccccc2)CC1.O=C(O)C(F)(F)F : 39

Value of measured Inhibition for the entry CN1CCN(c2cc(-c3cccc(C(F)(F)F)c3)nc(-c3ccncc3)n2)CC1 : 38

Value of measured Inhibition for the entry CN1CCN(CC(=O)Nc2ccc(-c3ccc(-c4nc5ccccc5[nH]4)s3)cc2)CC1 : 12

Value of measured Inhibition for the entry CC(Cc1ccc(C(=O)N2CCN(C(=O)c3ccc(CC(C)NCCc4cccc(Cl)c4)cc3)CC2)cc1)NCCc1cccc(Cl)c1 (configuration not stated) : 99

Value of measured Inhibition for the entry Cc1ccc(-c2nnc3c4ccccc4c(C)nn23)cc1S(=O)(=O)N1CCN(CCO)CC1 : 16

Value of measured Inhibition for the entry Cc1cc(N2CCCC2)nc(Nc2ccc(NC(=O)C(C)C)cc2)n1 : 40

Value of measured Inhibition for the entry CC=CC1CCNC(C(O)c2ccnc3ccc(OC)cc23)C1 (configuration not stated) : 0

Value of measured Inhibition for the entry COc1ccc(Cn2c(Nc3cccc(C(F)(F)F)c3)nc3cc(C(=O)NCCN4CCCC4)cnc32)cc1Cl : 10

Value of measured Inhibition for the entry O=C(NCc1ccccc1)Nc1cccc(-c2cccc(-c3nc4cc(C(F)(F)F)ccc4[nH]3)c2)c1 : 56

Value of measured Inhibition for the entry C1=CN(Cc2ccccc2)C=CC1=C1C=Nc2ccccc21 : 8

Value of measured Inhibition for the entry C=C(C)Cn1cc(C2CCN(CCCCNC(=O)c3sc(-c4ccc(Cl)cc4Cl)nc3CO)CC2)c2ccccc21 : 22

Value of measured Inhibition for the entry Cc1cccc2nc(-c3cccc(-c4ccc(NC(=O)Cc5ccccn5)cc4)c3)[nH]c12 : 25

Value of measured Inhibition for the entry CCc1ccc(NC(=O)c2ccc(CN3CCCN(Cc4cccc(O)c4)CC3)cc2)cc1.O=C(O)C(F)(F)F : 51

Value of measured Inhibition for the entry O=C(Nc1cccc([N+](=O)[O-])c1)Nc1cccc(C(F)(F)F)c1 : 0

Value of measured Inhibition for the entry Cc1c[nH]c(-c2cccc(C(=O)NC3CCC(CCN4CCc5ccc(C#N)cc5CC4)CC3)c2)n1.Cl (configuration not stated) : 23

Value of measured Inhibition for the entry CC(C)=CC1C(C(=O)n2c(=N)[nH]c3ccccc32)C1(C)C (configuration not stated) : 16

Value of measured Inhibition for the entry CN(C)CCN(C)Cc1ccc(-c2ccc3c(Nc4ccc(F)cc4Cl)ccnc3c2)o1 : 31

Value of measured Inhibition for the entry O=C(/C=C/c1ccc(Cl)c(Cl)c1)NCCCCCN1CCC(CCNC(=O)C2(c3ccc(Cl)cc3)CC2)CC1 : 96

Value of measured Inhibition for the entry C[C@H](Cc1ccc(OCCCOc2ccc(C[C@@H](C)NC[C@H](O)c3cccc(Cl)c3)cc2)cc1)NC[C@H](O)c1cccc(Cl)c1.Cl : 99

Value of measured Inhibition for the entry COCCNCc1ccc(-c2ccccc2CNC2CCN(Cc3ccccc3)CC2)cc1.O=C(O)C(F)(F)F : 17

Value of measured Inhibition for the entry O=C(C1COc2ccccc2O1)N(CCCn1ccnc1)Cc1csc(-c2ccc(CNCc3ccccc3)cc2)n1.O=C(O)C(F)(F)F (configuration not stated) : 15

Value of measured Inhibition for the entry Cl.O=C(Nc1ccc2c(c1)CCN(C1CCC1)CC2)c1ccc(-n2ccnc2)cn1 : 8

Value of measured Inhibition for the entry Oc1cc2c(cc1CN1CCN(Cc3ccccc3F)CC1)CCC2 : 2
